# System name: human leukocyte elastase (HLE) (Homo sapiens, UniProt P08246)
# Sequence (P08246 30-267): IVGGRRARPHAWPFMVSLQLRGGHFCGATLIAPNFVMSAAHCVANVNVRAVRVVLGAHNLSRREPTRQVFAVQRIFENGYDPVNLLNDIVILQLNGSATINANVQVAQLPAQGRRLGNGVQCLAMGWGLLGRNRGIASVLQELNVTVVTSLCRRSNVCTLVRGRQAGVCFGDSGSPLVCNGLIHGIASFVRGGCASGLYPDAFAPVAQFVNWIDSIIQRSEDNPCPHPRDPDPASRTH
# Method description: HLE-inhibition kinetic parameters (fluorescence, release of 7-amino-4-methylcoumarin from peptide substrate)
# Assay conditions: 37° C., 0.027M pH 7.4 phosphate buffer, 1% DMSO, 1% MeCN, NaCl (I=0.15); read-out: HLE-inhibition kinetic parameters: Ki^ss (apparent dissociation constant of HLE-inhibitor complex at steady state)
Quantity: pKi
Would you please state pKi, meaning minus log10 of the concentration in mol/L, as a bare number?

INSERT INTO assay_data (compound, system_name, recorded_value) VALUES
  ('CO[C@H]1C(=O)N2C(C(=O)C(C)(C)C)=C(COC(C)=O)CS(=O)(=O)[C@H]12 [Compound 51]', 'human leukocyte elastase (HLE) (Homo sapiens, UniProt P08246)', 7.96);

Then this compound:
Need pKi, item CO[C@H]1C(=O)N2C(C(=O)OC(C)(C)C)=C(COC(C)=O)CS(=O)(=O)[C@H]12 [Reference] 7.74

---

# Method description: Chemical stability at 37° C., 0.05M pH 7.4 phosphate buffer (HPLC, time course of starting material depletion)
# Type: physicochemical
# Assay conditions: 0.05m phosphate buffer, 5% DMSO, 10 mM initial conc., read-out: Chemical stability t1/2 (converted)
Item-by-item account of half-life at 10000 µM
Quick note: give the figure in h, leave out the unit.

INSERT INTO results (molecule, result_units, recorded_value) VALUES
  ('CO[C@H]1C(=O)N2C(C(=O)C(C)(C)C)=C(COC(C)=O)CS(=O)(=O)[C@H]12 [Compound 51]', 'h', 19.3);

Then this molecule:
Need half-life at 10000 µM, item CO[C@H]1C(=O)N2C(C(=O)OC(C)(C)C)=C(COC(C)=O)CS(=O)(=O)[C@H]12 [Reference] 3.2
